System: K562
protocol_notes: Cell cycle arrest in human K562 cells assessed as accumulation at G0/G1 phase at 20 nM after 24 hrs by propidium iodide staining-based flow cytometry
Format: functional

compound	result_unit	Activity
COc1cc(OC)c(C(=O)/C=C/c2ccc(OC)c(OC)c2OC)c(OC)c1	%	10
COc1ccc(/C=C\c2cc(OC)c(OC)c(OC)c2)cc1O [COMBRETASTATIN A4]	%	2
COc1ccc(/C=C/C(=O)c2ccc(OC)c(OC)c2OC)cc1F	%	37
COc1ccc(/C=C/C(=O)c2cc(OC)c(OC)c(OC)c2)cc1OC	%	31
COc1ccc(C(=O)/C=C/c2ccc(OC)c(OP(=O)([O-])[O-])c2)cc1.[Na+].[Na+]	%	22
